Origin of measurements: ChEMBL document CHEMBL1137682

tested on: Bacillus subtilis; test: Antibacterial activity against Bacillus subtilis ATCC 6633 after 24 hrs by MTT assay; format: functional; conditions: ATCC 6633, 24 h
// reported MIC per item
Quantity Kind: MIC (µg/mL)

Mol Smiles	Operator Symbol	Recorded Result
COC(=O)Cc1ccccc1OC(=O)c1ccc(C)cc1	=	12.5
NC[C@H]1O[C@H](O[C@H]2[C@H](O)[C@@H](O[C@H]3O[C@H](CO)[C@@H](O)[C@H](N)[C@H]3O)[C@H](N)C[C@@H]2N)[C@H](N)[C@@H](O)[C@@H]1O	=	0.39
COC(=O)Cc1ccccc1OC(=O)Cc1cccc(OC)c1	>	50
CN(C)[C@@H]1C(O)=C(C(N)=O)C(=O)[C@@]2(O)C(O)=C3C(=O)c4c(O)cccc4[C@@](C)(O)[C@H]3C[C@@H]12	=	1.56
CCOC(=O)Cc1ccccc1OC(=O)Cc1ccc(F)cc1	=	12.5
CCOC(=O)Cc1ccccc1OC(=O)c1ccc(Cl)cc1	=	25
COC(=O)Cc1ccccc1OC(=O)Cc1ccc(OC)c(OC)c1	=	25
CCOC(=O)Cc1ccccc1OC(=O)Cc1ccc(Cl)cc1	=	6.25
COC(=O)Cc1ccccc1OC(=O)Cc1cccc(Br)c1	=	1.56
COC(=O)Cc1ccccc1OC(=O)c1ccc(Cl)cc1	=	25
COC(=O)Cc1ccccc1OC(=O)c1cc(OC)cc(OC)c1	>	50
COC(=O)Cc1ccccc1O	=	12.5
CCOC(=O)Cc1ccccc1OC(=O)Cc1ccc(OC)c(OC)c1	=	12.5
